Recorded values, source PubChem BioAssay (NCI).

Assay: NCI Yeast Anticancer Drug Screen. Data for the sgs1 mgt1 strain (AID 161);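 also: 0% = growth of cultures given vehicle only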
Details: S. cerevisiae sgs1 mgt1 strain, at 50.0 µM, stronger effect = higher value
The panel holds about 79,000 compounds, 15% with a hit somewhere; the sample as a whole holds those more often. Active and inactive are the calls of the source. Rule as the data show it: active = growth inhibition above about 70%; inactive = the rest.
Quick list: growth inhibition per entry.

Compound	growth inhibition
O=C(O)Cc1ccc2c3c(cccc13)CC2	91.2% (active)
O=C1C=CC(=O)c2c(O)c(N3CCN(CCOCCO)CC3)c(Br)c(O)c21	89.7% (active)
CC(C)(C)Oc1ccc(CC(NC(=O)OCC2c3ccccc3-c3ccccc32)C(=O)O)cc1 (centres undefined)	90.5% (active)
CC(C(=O)N1C(=O)N(C(=O)C(C)C(O)c2ccccc2)C(c2ccccc2)C1c1ccccc1)C(O)c1ccccc1 (centres undefined)	91.9% (active)

---

Assay: NCI Yeast Anticancer Drug Screen. Data for the rad50 strain (AID 155);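 also: 0% = growth of vehicle-only cultures of the same strain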
Settings: S. cerevisiae rad50 strain growth inhibition; at 5.0 µM (retest, dose inferred, filed as 0.5)
Compounds without any hit were thinned out: in the full panel of roughly 79,000, 15% have a hit. The source made the active and inactive calls. Cut-off read from the data, not from the text of the source: active = growth inhibition above about 70%; inactive = the rest.
Possible outcomes: active, inactive

Compound	Assigned Label
COc1ccc(C2Oc3ccc(Cl)cc3C=C2[N+](=O)[O-])cc1 (stereo not given)	active
N#CS/C(Cl)=C(/C(Cl)=C(Cl)Cl)[N+](=O)[O-]	inactive
COc1ccc2c(C#N)cc3c(c[n+](C)c4ccccc34)c2c1	inactive
CC(C)=CC[P+](CCCCCC[P+](CC=C(C)C)(c1ccccc1)c1ccccc1)(c1ccccc1)c1ccccc1	inactive
C=CCNC(=O)c1ccccc1C(=O)O	inactive
O=C1CCCC1C(=O)OC1CCCC1 (stereo not given)	inactive
O=C(c1ccccc1)C1N=NCC1c1ccc([N+](=O)[O-])cc1 (stereo not given)	inactive
COc1ccc2nc3cc(Cl)ccc3c(NCCCCN(C)C)c2c1	inactive
OC(CCN1CCOCC1)C1c2ccccc2Cc2ccccc21 (stereo not given)	inactive
Oc1c2c(c(O)c3ncccc13)C1C=CC2CC1 (stereo not given)	inactive

---

Quick list: growth inhibition per entry.
Assay: NCI Yeast Anticancer Drug Screen. Data for the mec2-1 strain (AID 157)
Conditions: S. cerevisiae mec2-1 strain, at 5.0 µM (retest, dose inferred, filed as 0.5), stronger effect = higher value
The panel holds about 79,000 compounds, 15% with a hit somewhere; the sample as a whole holds those more often.

Compound	growth inhibition (%)
O=C(C1=Cc2ccccc2OC1)N1CCN(c2cccc(Cl)c2)CC1	-6
CC1=C(C)CC2C(=O)C(C(O)CC(C)C)=CC(=O)C2C1 (configuration not stated)	-5
Cc1sc(Cc2ccccc2)nc1-c1ccc(N=Cc2ccc(N(CCOS(C)(=O)=O)CCOS(C)(=O)=O)cc2)cc1	-10
OCCCNc1nc2c(Cl)cc(Cl)cc2c2ccccc12	6
Clc1ccccc1/C=C/c1nccc2ccccc12	-1
O=C(O)CSCc1cc2c3ccccc3sc2c2ccccc12	29
Cc1cc(/C=N/Nc2ccc3cccc(O)c3n2)c(O)c2ncccc12	41
OC(CCN1CCOCC1)C1c2ccccc2Cc2ccccc21 (configuration not stated)	6
ONC1=Nc2ccccc2OCc2cc(Br)c(Br)cc2COc2ccccc2N=C1NO	19
Cc1cc(C(=O)c2ccccc2)ccc1O	-6
CCCCCCCCCCCCNCc1ccc(Cl)c(Cl)c1	91
CN(CCO)CCn1cnc2c1c(=O)n(C)c(=O)n2C	-8
C[C@]12CC[C@H](O)C[C@@H]1CC[C@@H]1[C@@H]2CC[C@]2(C)C=CC[C@@H]12	-7
Cc1ccc(C(=O)/C(Cl)=N/O)cc1	10
CCCCCCCCCCCC(=O)OCCOP(=O)(OCC)OCC	2
Cc1c(O)c2c(c(O)c1Br)C(=O)C=CC2=O	93
O=C1C=C(c2cccc(-c3ccccc3)c2)CCC1	-2
N#CC=Cc1ccc([N+](=O)[O-])s1 (mixture of isomers)	39
ONC(=Nc1cccc2ccccc12)C(=Nc1cccc2ccccc12)NO	-8
Cc1cn(C(C#N)=C(C#N)C#N)c2ccccc12	6
O=C(CC1(O)C(=O)Nc2c(Cl)cc(Cl)cc21)c1ccc(Br)cc1Br (configuration not stated)	96
COc1ccc(-c2c(COC(C)=O)c(COC(C)=O)c3n2CCC3)cc1	-4
O=C1CC2(CCN(CC3COc4ccccc4O3)CC2)C(=O)N1N1CCCCCC1 (configuration not stated)	33
CCCCCCCCCCC(C(=O)OCCCC)P(=O)(OCCCC)OCCCC (configuration not stated)	9
CN(c1ccccc1)N(C)c1ccccc1	-3
O=C1C(Cl)=C(Nc2ccc(S(=O)(=O)O)cc2)C(=O)c2ccccc21	33
ClC(Cl)(Cl)C1OCOC(C(Cl)(Cl)Cl)O1 (configuration not stated)	17

---

Assay: NCI Yeast Anticancer Drug Screen. Data for the rad50 strain (AID 155);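 also: 0% = growth of vehicle-only cultures of the same strain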
Details: S. cerevisiae rad50 strain growth inhibition; at 50.0 µM (retest, dose inferred, filed as 5.0); stronger effect = higher value
The panel holds about 79,000 compounds, 15% with a hit somewhere; the sample as a whole holds those more often.
Metric Name: growth inhibition (%)

Molecule	Unit Spec	Value Measured
CC(CCOP(=O)(O)OCCC(C)CC(C)(C)C)CC(C)(C)C (configuration not stated)	%	20
O=C(NCc1ccccc1)C1C(=O)N(Cc2ccccc2)C(=O)/C1=N/O (configuration not stated)	%	-1
c1cc2cc(Cc3ccc4[nH]ccc4c3)ccc2[nH]1	%	26
Cc1nc(-c2cccc(Cl)c2)oc1-c1ccccc1	%	78
[C](#[C][Sn]([c]1ccccc1)([c]1ccccc1)[c]1ccccc1)[Sn]([c]1ccccc1)([c]1ccccc1)[c]1ccccc1	%	95
O=C1c2ccc(O)c(O)c2C(=O)c2cccc(O)c21	%	72
O=C(N(c1ccc(Cl)cc1)c1ccc(Cl)cc1)C(Cl)(Cl)Cl	%	68

---

Test: NCI Yeast Anticancer Drug Screen. Data for the mlh1 rad18 strain (AID 175)
Details: S. cerevisiae mlh1 rad18 strain growth inhibition; at 50.0 µM (retest, dose inferred, filed as 5.0); stronger effect = higher value
Compounds without any hit were thinned out: in the full panel of roughly 79,000, 15% have a hit.
Decision: growth inhibition >= 90% yields met, all other cases yield not met.

Compound	Assigned Label
O=C1c2cccc3cc([N+](=O)[O-])cc(c23)C(=O)N1O	not met
C=C(C#N)C(=O)OCC(CC)CC.C=C(C#N)C(=O)OCC(CC)CC.CS(C)=O.CS(C)=O.Nc1c(N=Nc2ccc(-c3ccc(N=Nc4cc(S(=O)(=O)[O-])c5ccccc5c4N)cc3)cc2)cc(S(=O)(=O)[O-])c2ccccc12.[Pt+2]	met
C1=c2ccccc2=C2C(=C(c3ccccc3)C(c3ccccc3)=NN2c2ccccc2)S1	not met
COc1ccc(C2COc3c(ccc(O)c3O)C2)cc1OC (stereo not drawn)	not met
O=[N+]([O-])CC(O)c1ccccc1Cl (stereo not drawn)	met
CCCCOc1ccc(-c2c(COC(=O)NC)c(COC(=O)NC)c(C)n2C)cc1	met
Cc1cc(C)c(S(=O)(=O)c2c(C)cc(C)cc2C)c(C)c1	not met
CC(C)Cc1cc(O)cc2ccccc12	met
O=C1c2ccccc2C2N1CCCN2C(=O)c1sc2ccccc2c1Cl (stereo not drawn)	met
CCCCC1C(=S)N(c2ccccc2)N(c2ccccc2)C1=S	not met
CC1(C)NNC(=S)NN1	not met
ON=C1Cc2ccccc2-c2ccccc2C1	not met
Cc1[nH]c2ccccc2c1/C=C1/CCCCCCC1=O	not met
CCCC(=O)OCc1cc(=O)n(C)c2c3c4c(cc12)c(C)cc(=O)n4CO3	met
Cc1ccc(NCCNCCO)c2c(=O)c3ccccc3sc12	met
C/C(=N\NC(=S)N1CCCC1)c1cnccn1	met
Cc1ccc(O)c(Cc2ccc(Cl)cc2)c1	met
O=C(c1ccccc1)C(Br)C(Br)c1ccc(Cl)c(Cl)c1 (stereo not drawn)	met
CCCC1(C)C(C#N)(C#N)C1(C#N)C#N	met

---

Quick list: growth inhibition per entry.
Test: NCI Yeast Anticancer Drug Screen. Data for the bub3 strain (AID 167)
Details: S. cerevisiae bub3 mutant strain, at 5.0 µM (retest, dose inferred, filed as 0.5), stronger effect = higher value
About 79,000 compounds went through this panel and 15% of them were active in at least one assay; those are over-represented in the sample as a whole.

Compound	growth inhibition [%]
O=C(c1ccc([N+](=O)[O-])cc1)C(Br)C(Br)c1ccnc2ccccc12 (stereo not drawn)	3
CN1C=Cc2ccccc2C1C(C1c2ccccc2C=CN1C)[N+](=O)[O-] (stereo not drawn)	-4
Nc1ccc2c(c1)CCc1ccccc1-2	-7
CCN(CC)C(=S)N/N=C(/c1ccccc1)c1ccccn1	95
Cc1cc(C)c(Cc2cc(C(C)(C)C)cc(C)c2O)cc1Cc1cc(C(C)(C)C)cc(C)c1O	-4
CC(=O)OC1=Cc2ccccc2C(c2ccccc2)c2ccccc21 (stereo not drawn)	8
NC(=O)NNC(=O)NNC(N)=O	-4
O=C1COC(=O)/C1=C\C=C\c1ccccc1	-5
O=C(O)c1cc2ccc3cccc4ccc(c1)c2c34	-3
O=C(C[n+]1ccccc1)c1ccc2ccc3ccc(Cl)cc3c2c1	-2
CCC(CC=C(C)C)(CC=C(C)C)c1ccncc1 (tested in a mixture with another compound)	1
CNC(=O)OCC1=CC(=O)C(OC)=C(OC)C1=O	-9
Cc1cc(/C=N/Nc2ccc3cccc(O)c3n2)c(O)c2ncccc12	17
